protocol_summary: Retention time of the compound by mass spectrometric analysis
Assay type: physicochemical
Peptide text beside a SMILES is read from it.
Here, each record is paired with measured Retention_time data.
test_readout: Retention_time (min)

CC(C)C[C@H](NC(=O)[C@H](CCC(N)=O)NC(=O)[C@@H]1CCCN1C(=O)[C@@H](N)CO)C(N)=O (H-SPQL-NH2): 19.5
CC[C@H](C)[C@H](NC(=O)[C@@H](N)CO)C(=O)N[C@@H](CC(=O)O)C(=O)N[C@@H](CCSC)C(=O)N[C@H](C(=O)N[C@@H](CC(=O)O)C(=O)N[C@@H](CO)C(=O)N1CCC[C@H]1C(=O)N[C@@H](CCC(N)=O)C(=O)N[C@@H](CC(C)C)C(=O)N[C@@H](C)C(=O)N[C@H](C(N)=O)[C@@H](C)O)C(C)C (H-SIDMVDSPQLAT-NH2): 27.9
CC[C@H](C)[C@H](NC(=O)[C@H](CO)NC(=O)CNC(=O)[C@@H](NC(=O)[C@H](CO)NC(C)=O)[C@@H](C)O)C(=O)N[C@@H](CC(=O)O)C(=O)N[C@@H](CCSC)C(=O)N[C@H](C(=O)N[C@@H](CC(=O)O)C(=O)N[C@@H](CO)C(=O)N1CCC[C@H]1C(=O)N[C@@H](CCC(N)=O)C(=O)N[C@@H](CC(C)C)C(N)=O)C(C)C (Ac-STGSIDMVDSPQL-NH2): 31.8

====

measured_on: UniProt:P42574
Sequence (whole entry): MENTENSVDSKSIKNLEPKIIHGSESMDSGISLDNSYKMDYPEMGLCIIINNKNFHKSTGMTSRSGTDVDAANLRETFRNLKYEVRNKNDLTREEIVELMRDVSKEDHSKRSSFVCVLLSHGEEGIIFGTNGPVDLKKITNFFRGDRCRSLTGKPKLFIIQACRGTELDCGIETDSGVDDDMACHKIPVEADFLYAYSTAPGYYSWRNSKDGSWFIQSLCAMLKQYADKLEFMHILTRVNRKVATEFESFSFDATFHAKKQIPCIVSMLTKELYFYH
protocol_summary: Substrate activity at recombinant human caspase-3 assessed as enzyme-mediated compound cleavage after 1 hr by RP-HPLC analysis
Activity calls are given as the source filed them. The calls are words filed in the database; no cut-off is given here. Square brackets hold non-standard residues; d marks the D form. Peptide text beside a SMILES is read from it. ξ: configuration not given here. ξpS = NC(COP(=O)(O)O)C(=O)O
Labels: Y (active), N (inactive)

CC[C@H](C)[C@H](NC(=O)[C@H](CO)NC(=O)CNC(=O)[C@@H](NC(=O)[C@H](CO)NC(C)=O)[C@@H](C)O)C(=O)N[C@@H](CC(=O)O)C(=O)N[C@@H](CCSC)C(=O)N[C@H](C(=O)N[C@@H](CC(=O)O)C(=O)NC(COP(=O)(O)O)C(=O)N1CCC[C@H]1C(=O)N[C@@H](CCC(N)=O)C(=O)N[C@@H](CC(C)C)C(=O)N[C@@H](C)C(N)=O)C(C)C (some centres undefined) (Ac-STGSIDMVD[ξpS]PQLA-NH2): N
CC[C@H](C)[C@H](NC(=O)[C@@H](N)CO)C(=O)N[C@@H](CC(=O)O)C(=O)N[C@@H](CCSC)C(=O)N[C@H](C(=O)N[C@@H](CC(=O)O)C(=O)NC(COP(=O)(O)O)C(=O)N1CCC[C@H]1C(=O)N[C@@H](CCC(N)=O)C(=O)N[C@@H](CC(C)C)C(=O)N[C@@H](C)C(=O)N[C@H](C(N)=O)[C@@H](C)O)C(C)C (some centres undefined) (H-SIDMVD[ξpS]PQLAT-NH2): N
CC[C@H](C)[C@H](NC(=O)[C@H](CO)NC(=O)CNC(=O)[C@@H](NC(=O)[C@H](CO)NC(C)=O)[C@@H](C)O)C(=O)N[C@@H](CC(=O)O)C(=O)N[C@@H](CCSC)C(=O)N[C@H](C(=O)N[C@H](CC(=O)O)C(=O)N[C@@H](CO)C(=O)N1CCC[C@H]1C(=O)N[C@@H](CCC(N)=O)C(=O)N[C@@H](CC(C)C)C(=O)N[C@@H](C)C(N)=O)C(C)C: N
CC[C@H](C)[C@H](NC(=O)[C@H](CO)NC(=O)CNC(=O)[C@@H](NC(=O)[C@H](CO)NC(C)=O)[C@@H](C)O)C(=O)N[C@@H](CC(=O)O)C(=O)N[C@@H](CCSC)C(=O)N[C@H](C(=O)N[C@@H](CC(=O)O)C(=O)N[C@H](CO)C(=O)N1CCC[C@H]1C(=O)N[C@@H](CCC(N)=O)C(=O)N[C@@H](CC(C)C)C(=O)N[C@@H](C)C(N)=O)C(C)C: Y
